Target: Neu5Ac(a2-6)Gal(b1-4)GlcNAc(b1-2)Man(a1-3)Man(b1-4)GlcNAc(b1-4)GlcNAc
Experiment: glycan array binding signal (z-score within array); higher = stronger binding
Conditions: glycan notation: IUPAC condensed, linker removed
The entries come from a sample that favours the strongest signals as a whole.
OBSERVATION_TYPE: glycan array binding signal (z-score)
Just the number.

Req: Return reported glycan array binding signal (z-score); argument: CIH1 (Colletotrichum higginsianum) (protein) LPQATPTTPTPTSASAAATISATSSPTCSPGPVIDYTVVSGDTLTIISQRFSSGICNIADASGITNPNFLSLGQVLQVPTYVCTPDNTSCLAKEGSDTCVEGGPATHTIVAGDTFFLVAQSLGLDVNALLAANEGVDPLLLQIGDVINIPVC
Resp: -0.004

Req: Lookup HA-00510 (Pseudomonas aeruginosa), Q02V39_PSEAB (protein) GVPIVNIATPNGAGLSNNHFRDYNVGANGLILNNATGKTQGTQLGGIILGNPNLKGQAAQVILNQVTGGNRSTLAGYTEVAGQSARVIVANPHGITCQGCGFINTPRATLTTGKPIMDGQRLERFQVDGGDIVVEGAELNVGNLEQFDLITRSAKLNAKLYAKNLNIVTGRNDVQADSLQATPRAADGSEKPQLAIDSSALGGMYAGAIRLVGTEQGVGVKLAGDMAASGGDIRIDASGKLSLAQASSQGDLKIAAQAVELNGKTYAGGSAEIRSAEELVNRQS
Resp: -0.14
